- Tested on: L1210 leukemia ip in BDF1 mice, survival T/C
- ASSAY COMMENT: NCI In Vivo Anticancer Drug Screen. Data for tumor model L1210 Leukemia (intraperitoneal) in B6D2F1 (BDF1) mice
- CONDITION: endpoint: mean survival time; dose: 200.0 mg/kg/injection; schedule: Q01DX001 (ip); vehicle: saline; higher = longer survival
Inconclusive results and toxic doses are left out.
Here, each record is paired with measured T/C data.
OBSERVATION TYPE: T/C

compound="CNc1ccn(C2CCCO2)c(=O)n1 (centres undefined)" assayed_target="L1210 leukemia ip in BDF1 mice, survival T/C" result="104 % of control"
compound=CN(C)P(N(C)C)N(C)C assayed_target="L1210 leukemia ip in BDF1 mice, survival T/C" result="93 % of control"
compound=Cn1nnc(N)n1 assayed_target="L1210 leukemia ip in BDF1 mice, survival T/C" result="100 % of control"
compound="O=S(=O)(c1ccccc1)C1CC1c1ccc(Cl)cc1 (centres undefined)" assayed_target="L1210 leukemia ip in BDF1 mice, survival T/C" result="92 % of control"
compound="CC1OC(=O)NC1C(=O)O (centres undefined)" assayed_target="L1210 leukemia ip in BDF1 mice, survival T/C" result="98 % of control"
compound="CCOC(=O)CCNC(COCc1ccccc1)C(=O)OCC (centres undefined)" assayed_target="L1210 leukemia ip in BDF1 mice, survival T/C" result="95 % of control"
compound="O=S(=O)(c1ccccc1)C1CC1(c1ccccc1)c1ccccc1 (centres undefined)" assayed_target="L1210 leukemia ip in BDF1 mice, survival T/C" result="93 % of control"
compound=O=C(O)c1c[nH]c2c(Cl)cc(Cl)cc2c1=O assayed_target="L1210 leukemia ip in BDF1 mice, survival T/C" result="94 % of control"
compound="O/N=C1/CC2CCC(C2)C1(O)c1ccccc1 (centres undefined)" assayed_target="L1210 leukemia ip in BDF1 mice, survival T/C" result="113 % of control"
compound="NC(Cc1ccccc1)C(=O)NCCCCCCCCCCNC(=O)C(N)Cc1ccccc1 (centres undefined)" assayed_target="L1210 leukemia ip in BDF1 mice, survival T/C" result="103 % of control"
compound=Nc1nc[nH]c1C(=O)NO assayed_target="L1210 leukemia ip in BDF1 mice, survival T/C" result="103 % of control"
compound=CC(C)(CBr)C(=O)Cl assayed_target="L1210 leukemia ip in BDF1 mice, survival T/C" result="106 % of control"
compound="CC(c1ccccc1)n1cnc2c(Cl)ncnc21 (centres undefined)" assayed_target="L1210 leukemia ip in BDF1 mice, survival T/C" result="101 % of control"
compound="CCOC(Nc1ccccc1[N+](=O)[O-])C(=O)c1ccccc1 (centres undefined)" assayed_target="L1210 leukemia ip in BDF1 mice, survival T/C" result="86 % of control"
compound=O=C(O)c1ccc([N+](=O)[O-])cc1Sc1ccsc1 assayed_target="L1210 leukemia ip in BDF1 mice, survival T/C" result="98 % of control"
compound=O=[N+]([O-])c1cc2c(nc3ccccn32)c2ccccc12 assayed_target="L1210 leukemia ip in BDF1 mice, survival T/C" result="97 % of control"
compound=S=c1[nH]c2[nH]cnc(=S)c2[nH]1 assayed_target="L1210 leukemia ip in BDF1 mice, survival T/C" result="97 % of control"
compound="Cc1ccc(S(=O)(=O)OCC2OC(C)(C)OC3C(COS(=O)(=O)c4ccc(C)cc4)OC(C)(C)OC23)cc1 (centres undefined)" assayed_target="L1210 leukemia ip in BDF1 mice, survival T/C" result="89 % of control"
compound="CCCC1(c2ccccc2)NC(=O)NC1=O (centres undefined)" assayed_target="L1210 leukemia ip in BDF1 mice, survival T/C" result="102 % of control"

* * *

Here, each record is paired with measured T/C data.
- System: L1210 leukemia ip in BDF1 mice, survival T/C
- ASSAY COMMENT: NCI In Vivo Anticancer Drug Screen. Data for tumor model L1210 Leukemia (intraperitoneal) in B6D2F1 (BDF1) mice
- CONDITION: endpoint: mean survival time; dose: 200.0 mg/kg/injection; schedule: Q01DX001 (ip); vehicle: saline; higher = longer survival
Inconclusive results and toxic doses are left out.
OBSERVATION TYPE: T/C

compound=COC(=O)c1cccc(C)n1 result="100 % of control"
compound="COC(=O)C1CC2(Br)C(Br)=C(Br)C1(Br)C2(Br)Br (stereo unspecified)" result="100 % of control"
compound=O=C(CCCl)NCCCCCCNC(=O)CCCl result="89 % of control"
compound="CC(C)CC(NC(=O)OCc1ccccc1)C(=O)NCCCCCCNCCCCCCNC(=O)C(CC(C)C)NC(=O)OCc1ccccc1 (stereo unspecified)" result="98 % of control"
compound="O=C(c1ccccc1)C(C(C(=O)c1ccccc1)N1CCOCC1)N1CCOCC1 (stereo unspecified)" result="102 % of control"
compound=C/C=C1/C(=O)O[C@]23C=C[C@@H]4C(C(=O)OC)=CO[C@H](O[C@@H]12)[C@@H]43 result="103 % of control"

* * *

- System: L1210 leukemia ip in BDF1 mice, survival T/C
- ASSAY COMMENT: NCI In Vivo Anticancer Drug Screen. Data for tumor model L1210 Leukemia (intraperitoneal) in B6D2F1 (BDF1) mice
- CONDITION: endpoint: mean survival time; dose: 25.0 mg/kg/injection; schedule: Q01DX009 (ip); vehicle: saline with Tween-80; higher = longer survival
Inconclusive results and toxic doses are left out.
OBSERVATION TYPE: T/C

compound=Nc1nc(NCCCc2ccccc2)c(N)c(=O)[nH]1 assayed_target="L1210 leukemia ip in BDF1 mice, survival T/C" result="94 % of control"
compound=COc1ccc2nc3cc(Cl)ccc3c(NCCNCCNCCNc3c4ccc(Cl)cc4nc4ccc(OC)cc34)c2c1 assayed_target="L1210 leukemia ip in BDF1 mice, survival T/C" result="101 % of control"
compound=S=C=NCCc1ccccc1 assayed_target="L1210 leukemia ip in BDF1 mice, survival T/C" result="104 % of control"
compound="CNC(C)(C)C(SSSC(c1ccc(Cl)cc1)C(C)(C)NC)c1ccc(Cl)cc1 (configuration not stated)" assayed_target="L1210 leukemia ip in BDF1 mice, survival T/C" result="98 % of control"
compound=CCOP(=O)(CSc1ccccc1)OCC assayed_target="L1210 leukemia ip in BDF1 mice, survival T/C" result="93 % of control"
compound=CN(C)Cc1cc(O)c(CN(C)C)cc1O assayed_target="L1210 leukemia ip in BDF1 mice, survival T/C" result="110 % of control"
compound=COc1cc(/C=N/NC(=O)c2ccccc2Cl)ccc1O assayed_target="L1210 leukemia ip in BDF1 mice, survival T/C" result="88 % of control"

* * *

Here, each record is paired with measured T/C data.
- System: L1210 leukemia ip in BDF1 mice, survival T/C
- ASSAY COMMENT: NCI In Vivo Anticancer Drug Screen. Data for tumor model L1210 Leukemia (intraperitoneal) in B6D2F1 (BDF1) mice
- CONDITION: endpoint: mean survival time; dose: 100.0 mg/kg/injection; schedule: Q04DX002 (ip); vehicle: saline with Tween-80; higher = longer survival
- Procedure: The antitumor activity of compounds was measured in mice bearing transplantable tumors. Survival or tumor size were measured and the results are expressed as the measurement made in the treated group (T) divided by the measurement made in the vehicle treated control group (C). The tumor model used in this assay is L1210 Leukemia (intraperitoneal) in B6D2F1 (BDF1) mice
Toxic doses and inconclusive results are not listed.
OBSERVATION TYPE: T/C

given_smiles=Cc1cc(C)c(C(=O)c2ccccc2C(=O)OC(=O)c2ccccc2C(=O)c2c(C)cc(C)cc2C)c(C)c1 assayed_target="L1210 leukemia ip in BDF1 mice, survival T/C" result="88 % of control"
given_smiles=S=P(c1ccccc1)(c1ccccc1)N1CCCCC1 assayed_target="L1210 leukemia ip in BDF1 mice, survival T/C" result="96 % of control"
given_smiles=OC(c1ccccc1)(c1ccccc1)C(O)(c1ccccc1)c1ccccc1 assayed_target="L1210 leukemia ip in BDF1 mice, survival T/C" result="102 % of control"

* * *

- Tested on: L1210 leukemia ip in BDF1 mice, survival T/C
- ASSAY COMMENT: NCI In Vivo Anticancer Drug Screen. Data for tumor model L1210 Leukemia (intraperitoneal) in B6D2F1 (BDF1) mice
- CONDITION: endpoint: mean survival time; dose: 100.0 mg/kg/injection; schedule: Q01DX009 (ip); vehicle: Klucel (hydroxypropylcellulose) (HPC); higher = longer survival
Inconclusive results and toxic doses are left out.
OBSERVATION TYPE: T/C

compound=Nc1ncnc2n[nH]nc12 observation_type=T/C result="106 % of control"
compound=c1ccc(C(c2ccccc2)[Si](c2ccccc2)(c2ccccc2)C(c2ccccc2)c2ccccc2)cc1 observation_type=T/C result="86 % of control"
compound=CO[C@H]1/C=C/O[C@@]2(C)Oc3c(C)c(O)c4c(O)c(c(/C=N/N5CCN(C)CC5)c(O)c4c3C2=O)NC(=O)/C(C)=C\C=C\[C@H](C)[C@H](O)[C@@H](C)[C@@H](O)[C@@H](C)[C@H](OC(C)=O)[C@@H]1C observation_type=T/C result="94 % of control"
compound=COc1cc(NCCS(C)(=O)=O)ccc1C(=O)Nc1ccccc1 observation_type=T/C result="105 % of control"
compound=COc1ccc(Cl)cc1NC(=O)c1cccc(C(=O)Nc2cc(Cl)ccc2OC)c1 observation_type=T/C result="92 % of control"
compound=Cc1ccc(C)c(NC(=O)Oc2ccc(Cl)cc2Cl)c1 observation_type=T/C result="110 % of control"
compound=CCCCC(=O)c1cc(OC)cc(OC)c1 observation_type=T/C result="97 % of control"
compound=Clc1cc(Cl)c2c(c1)Cc1cc(Cl)cc(N=Cc3ccc4c(c3)OCO4)c1-2 observation_type=T/C result="97 % of control"
compound=CCOC(=O)c1cncc(C(=O)OCC)c1 observation_type=T/C result="100 % of control"
compound="CCOC(=O)C1CCN(S(=O)(=O)c2ccc(C)cc2)c2cc(Cl)ccc2C1=O (stereo not given)" observation_type=T/C result="93 % of control"
compound=O=[N+]([O-])c1ccccc1S(=O)(=O)N1CCN(S(=O)(=O)c2ccccc2[N+](=O)[O-])C1 observation_type=T/C result="90 % of control"
compound=O=C1CCCc2c1ccc1ccccc21 observation_type=T/C result="97 % of control"
compound="CCOC(=O)/C(C(C)=O)=C(/O)c1ccc(OC(F)(F)C(F)Cl)cc1OC(F)(F)C(F)Cl.CCOC(=O)/C(C(C)=O)=C(/O)c1ccc(OC(F)(F)C(F)Cl)cc1OC(F)(F)C(F)Cl.[Cu] (stereo not given)" observation_type=T/C result="88 % of control"
compound=N#Cc1nc2c(n(O)c1=N)CCC/C2=C\c1ccccc1 observation_type=T/C result="103 % of control"
compound=COc1ccc(OC)c(NC(=O)Nc2cc(C(F)(F)F)ccc2Cl)c1 observation_type=T/C result="104 % of control"
compound="Cc1cccc(CN2CCN(C(c3ccccc3)c3ccc(Cl)cc3)CC2)c1 (stereo not given)" observation_type=T/C result="94 % of control"
compound="BrC1C(Br)C(Br)C2OC2C1Br (stereo not given)" observation_type=T/C result="96 % of control"
compound="CCc1ccccc1NC(=O)N1CCCCC1C (stereo not given)" observation_type=T/C result="102 % of control"
compound="CCOC(=O)NC(CC)CO (stereo not given)" observation_type=T/C result="96 % of control"
compound=Cc1cc(C)c(CC(C)(CO)CO)cc1CC(C)(CO)CO observation_type=T/C result="93 % of control"
compound=O=C(NC(=S)Nc1ccc(Cl)cc1C(=O)c1ccccc1)c1ccc(Cl)cc1Cl observation_type=T/C result="93 % of control"
compound=COc1ccc(NC(=O)COc2ccccc2Br)cc1 observation_type=T/C result="95 % of control"
compound="COc1cc(C(Br)C(Br)C(=O)c2ccccc2[N+](=O)[O-])cc(OC)c1OC (stereo not given)" observation_type=T/C result="95 % of control"
compound=CCCCNC(=O)Nc1ccc(C)c(Cl)c1 observation_type=T/C result="96 % of control"
compound=CC(C)CCCc1c[nH]c(=O)[nH]c1=O observation_type=T/C result="105 % of control"
compound="CC1(C)SC(C)(C)N(C=O)C1C(=O)O (stereo not given)" observation_type=T/C result="93 % of control"
compound=CN(NC(=O)OCc1ccccc1)C(=O)OCc1ccccc1 observation_type=T/C result="90 % of control"
compound=NC(=O)c1ccccc1NC(=O)Nc1ccccc1F observation_type=T/C result="105 % of control"
compound="Cc1cccc(OCC(O)CN2CCN(c3ccccc3)CC2)c1 (stereo not given)" observation_type=T/C result="101 % of control"
compound="Cc1cccc(C)c1N1C(=O)CC(Sc2ccccc2N)C1=O (stereo not given)" observation_type=T/C result="92 % of control"
compound=Clc1cc(C(Cl)(Cl)Cl)ccc1C(Cl)(Cl)Cl observation_type=T/C result="90 % of control"
compound=C/C=C\c1ccc(OC(=O)Nc2ccc(C(=O)OCC)cc2)c(OC)c1 observation_type=T/C result="94 % of control"
compound=Cc1ccc(Cl)cc1NC(=O)COc1ccc(Cl)cc1 observation_type=T/C result="88 % of control"
compound=CCOc1ccc(NC(=O)Nc2cccc(C(F)(F)F)c2)cc1 observation_type=T/C result="91 % of control"
compound=C=CCNC(=S)Nc1cccc(OC(=O)Nc2ccc(Cl)c(Cl)c2)c1 observation_type=T/C result="87 % of control"
